All figures here come from patent US11130803B2.

Below, each entry is listed alongside its reported (E) hGARP, Cell-associated proTGFβ1 KD.
# assay-target: T1, hGARP-proTGFβ1 (Homo sapiens, UniProt P01137)
# T1 construct: made in house
# T1 sequence (P01137 30-390): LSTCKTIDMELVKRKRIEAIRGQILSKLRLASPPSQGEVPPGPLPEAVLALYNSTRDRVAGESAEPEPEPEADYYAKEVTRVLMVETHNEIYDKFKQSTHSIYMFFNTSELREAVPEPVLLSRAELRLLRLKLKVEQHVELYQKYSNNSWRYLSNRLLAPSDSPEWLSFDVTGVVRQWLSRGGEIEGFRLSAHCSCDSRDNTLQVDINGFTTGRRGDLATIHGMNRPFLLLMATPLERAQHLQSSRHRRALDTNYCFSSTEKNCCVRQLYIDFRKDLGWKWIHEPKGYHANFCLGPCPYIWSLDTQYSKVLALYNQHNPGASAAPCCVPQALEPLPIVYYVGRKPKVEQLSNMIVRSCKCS
# T1 sequence (Q14392 20-627 partner limits assumed): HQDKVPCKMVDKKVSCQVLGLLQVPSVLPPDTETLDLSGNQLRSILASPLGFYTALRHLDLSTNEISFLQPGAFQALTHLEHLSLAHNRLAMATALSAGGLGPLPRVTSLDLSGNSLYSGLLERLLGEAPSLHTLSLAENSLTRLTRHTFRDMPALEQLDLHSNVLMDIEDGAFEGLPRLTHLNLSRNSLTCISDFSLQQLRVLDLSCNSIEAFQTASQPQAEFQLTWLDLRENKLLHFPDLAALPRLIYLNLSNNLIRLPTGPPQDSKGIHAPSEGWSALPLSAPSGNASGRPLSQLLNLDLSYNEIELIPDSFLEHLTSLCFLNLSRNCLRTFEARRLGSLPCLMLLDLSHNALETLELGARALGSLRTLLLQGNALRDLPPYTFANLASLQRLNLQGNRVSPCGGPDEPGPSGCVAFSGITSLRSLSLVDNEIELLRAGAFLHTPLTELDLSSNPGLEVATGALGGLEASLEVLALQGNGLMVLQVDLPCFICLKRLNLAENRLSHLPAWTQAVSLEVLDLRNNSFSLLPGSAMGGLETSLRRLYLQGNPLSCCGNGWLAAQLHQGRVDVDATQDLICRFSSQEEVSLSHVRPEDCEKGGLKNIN
# assay: MSD-SET solution equilibrium titration binding
# measurement-context: MSD-SET at equilibrium, hIgG4, human complex; in M

molecule | (E) hGARP, Cell-associated proTGFβ1 KD
Ab33: monoclonal antibody; VH SEQ ID NO: 141, VL SEQ ID NO: 15 (antibody, V domains shown) VH: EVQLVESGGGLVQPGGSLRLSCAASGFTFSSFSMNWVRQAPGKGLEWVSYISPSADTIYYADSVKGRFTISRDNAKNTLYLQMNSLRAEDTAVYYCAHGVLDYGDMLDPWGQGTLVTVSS VL: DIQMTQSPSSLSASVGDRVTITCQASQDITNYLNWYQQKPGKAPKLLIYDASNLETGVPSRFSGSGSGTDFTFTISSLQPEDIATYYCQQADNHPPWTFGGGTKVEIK | 7.80E−12
Ab11: monoclonal antibody; VH SEQ ID NO: 239, VL SEQ ID NO: 241 (antibody, V domains shown) VH: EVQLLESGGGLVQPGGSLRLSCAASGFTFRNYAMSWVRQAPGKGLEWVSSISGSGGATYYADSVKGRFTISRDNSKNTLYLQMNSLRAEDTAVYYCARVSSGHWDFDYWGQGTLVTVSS VL: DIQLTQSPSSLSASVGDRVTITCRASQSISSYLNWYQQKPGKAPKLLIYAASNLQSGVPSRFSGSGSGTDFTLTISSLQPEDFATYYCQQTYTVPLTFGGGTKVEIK | 3.00E−09
Ab19: monoclonal antibody; VH SEQ ID NO: 250, VL SEQ ID NO: 241 (antibody, V domains shown) VH: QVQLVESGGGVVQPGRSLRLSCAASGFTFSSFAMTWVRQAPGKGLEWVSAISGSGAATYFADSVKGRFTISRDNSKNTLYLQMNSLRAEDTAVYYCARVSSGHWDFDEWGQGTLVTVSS VL: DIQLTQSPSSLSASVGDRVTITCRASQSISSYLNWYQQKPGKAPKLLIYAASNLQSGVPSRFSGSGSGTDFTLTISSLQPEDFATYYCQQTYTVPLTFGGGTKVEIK | 3.80E−09
Ab26: monoclonal antibody; VH SEQ ID NO: 134, VL SEQ ID NO: 15 (antibody, V domains shown) VH: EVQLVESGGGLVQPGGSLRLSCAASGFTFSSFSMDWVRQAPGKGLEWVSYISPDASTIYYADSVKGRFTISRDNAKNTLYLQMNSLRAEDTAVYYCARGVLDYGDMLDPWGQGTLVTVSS VL: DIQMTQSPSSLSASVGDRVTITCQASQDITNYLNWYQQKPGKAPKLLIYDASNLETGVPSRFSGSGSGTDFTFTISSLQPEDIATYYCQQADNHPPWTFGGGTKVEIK | 1.40E−11
Ab31: monoclonal antibody; VH SEQ ID NO: 139, VL SEQ ID NO: 15 (antibody, V domains shown) VH: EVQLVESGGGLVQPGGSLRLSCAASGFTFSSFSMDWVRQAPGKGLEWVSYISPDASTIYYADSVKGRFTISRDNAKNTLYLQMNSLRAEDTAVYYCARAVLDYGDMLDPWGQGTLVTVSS VL: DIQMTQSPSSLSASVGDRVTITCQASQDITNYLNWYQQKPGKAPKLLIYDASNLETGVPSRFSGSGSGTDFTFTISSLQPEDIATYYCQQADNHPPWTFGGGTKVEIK | 1.90E−11
